TARGET OR TEST SYSTEM: RAGE (sRAGE) binding to β-amyloid (Homo sapiens, UniProt Q15109)
Construct: extracellular domain can be isolated by proteolysis of RAGE to generate soluble RAGE (sRAGE) comprised of the V and C domains
Sequence (Q15109 23-342 limits assumed): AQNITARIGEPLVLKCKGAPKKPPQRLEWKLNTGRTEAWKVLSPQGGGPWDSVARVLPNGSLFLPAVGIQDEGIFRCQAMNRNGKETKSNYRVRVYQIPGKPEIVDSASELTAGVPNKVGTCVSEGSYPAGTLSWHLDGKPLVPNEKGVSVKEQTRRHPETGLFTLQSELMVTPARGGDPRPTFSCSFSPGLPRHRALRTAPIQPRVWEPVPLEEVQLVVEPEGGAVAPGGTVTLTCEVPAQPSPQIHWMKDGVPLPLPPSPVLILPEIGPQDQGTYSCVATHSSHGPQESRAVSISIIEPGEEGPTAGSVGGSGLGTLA
METHOD NOTES: ELISA assay: inhibition of sRAGE binding to plate-bound β-amyloid
CONDITIONS: ligand β-amyloid coated on plate, concentration at which 50% signal has been inhibited
Protocol: This method is also described and claimed in co-pending U.S. Ser. No. 09/799,152 filed Mar. 5, 2001. […] to 5 mL 50 mM imidazole buffer saline (pH 7.2) containing 0.2% bovine serum albumin and 1 mM Ca2Cl2. […] The reaction is quenched with 10 μL of stop solution (0.5 N NaOH in 50% ethanol) and the absorbance is measured spectrophotometrically with a microplate reader at 405 nm.
Structures can show the parent of a compound that is named as a salt.
ASSAY READOUT: IC50

compound="CCN(CC)CCCOc1ccc(NC(=O)CC(N)c2ccccc2OC(C)(C)C)c(OCCCN(CC)CC)c1 (stereo not drawn)" target_or_test_system="RAGE (sRAGE) binding to β-amyloid (Homo sapiens, UniProt Q15109)" assay_readout=IC50 measured="1 to 5 µM"
compound=CCCCN(C(=O)[C@H](N)Cc1ccc(OCc2ccccc2)cc1)c1cccc(OCCCN(CC)CC)c1 target_or_test_system="RAGE (sRAGE) binding to β-amyloid (Homo sapiens, UniProt Q15109)" assay_readout=IC50 measured="1 to 5 µM"
compound="CCCCOc1cc(OCCCN(CC)CC)ccc1NC(=O)C(CC1CCN(C(=O)c2ccccc2)CC1)NC(=O)c1ccccc1 (stereo not drawn)" target_or_test_system="RAGE (sRAGE) binding to β-amyloid (Homo sapiens, UniProt Q15109)" assay_readout=IC50 measured="5 to 10 µM"
compound=CCCCN(C(=O)[C@H](N)Cc1ccc(OCc2ccccc2)cc1)c1ccc(OCCCN(CC)CC)cc1 target_or_test_system="RAGE (sRAGE) binding to β-amyloid (Homo sapiens, UniProt Q15109)" assay_readout=IC50 measured="1 to 5 µM"
compound=CCCCN(C(=O)[C@@H](Cc1ccc(OCc2ccccc2)cc1)NC(=O)OC(C)(C)C)c1cccc(OCCCN(CC)CC)c1 target_or_test_system="RAGE (sRAGE) binding to β-amyloid (Homo sapiens, UniProt Q15109)" assay_readout=IC50 measured="1 to 5 µM"
compound="CCN(CC)CCCOc1ccc(NC(=O)CC(NC(C)C)c2cccc(OC(C)(C)C)c2)c(OCCCN(CC)CC)c1 (stereo not drawn)" target_or_test_system="RAGE (sRAGE) binding to β-amyloid (Homo sapiens, UniProt Q15109)" assay_readout=IC50 measured="1 to 5 µM"
compound="CCN(CC)CCCOc1ccc(NC(=O)CC(NC(=O)OCC2c3ccccc3-c3ccccc32)c2cccc(OC(C)(C)C)c2)c(OCCCN(CC)CC)c1 (stereo not drawn)" target_or_test_system="RAGE (sRAGE) binding to β-amyloid (Homo sapiens, UniProt Q15109)" assay_readout=IC50 measured="1 to 5 µM"
compound=CCN(CC)CCCOc1ccc(N(Cc2ccccc2)C(=O)[C@@H](Cc2ccc(OCc3ccccc3)cc2)NC(=O)OC(C)(C)C)cc1 target_or_test_system="RAGE (sRAGE) binding to β-amyloid (Homo sapiens, UniProt Q15109)" assay_readout=IC50 measured="5 to 10 µM"
compound="CCCCOc1cc(C(=O)OCCN(CC)CC)ccc1NC(=O)[C@@H]1Cc2ccccc2CN1 [Example 6, Dihydrochloride]" target_or_test_system="RAGE (sRAGE) binding to β-amyloid (Homo sapiens, UniProt Q15109)" assay_readout=IC50 measured="10 to 20 µM"
